Cited source for all entries: a melting point compilation (Tetko et al.)

parameter_measured: melting point (°C)

Below: 4 molecules and their reported melting point.
# molecule, parameter_measured, value_observed
measured = [
    ("ClC1=CC(c2ccccc2)c2ccccc21 (stereo unspecified)", "melting point", 81),
    ("CCOC(=O)C(C#N)=Cc1ccccc1Cl", "melting point", 88),
    ("CC(C)(C(=O)O)n1nc2ccccc2n1", "melting point", 152),
    ("c1ccc(-c2nc[nH]c2-c2ccccc2)cc1", "melting point", 232),
]

[a] Cc1nc2cc(-c3ccccc3)ccc2o1
[b] Cc1ccc2[nH]c3ccccc3c2c1
### Prompt Identify the entry with the smaller melting point: a or b . Write the label of whichever entry you select.
### Response a
(a: 63 °C, b: 208 °C)
